# tested-target: Hsp82 (Saccharomyces cerevisiae, UniProt P02829)
# Sequence (P02829 whole entry): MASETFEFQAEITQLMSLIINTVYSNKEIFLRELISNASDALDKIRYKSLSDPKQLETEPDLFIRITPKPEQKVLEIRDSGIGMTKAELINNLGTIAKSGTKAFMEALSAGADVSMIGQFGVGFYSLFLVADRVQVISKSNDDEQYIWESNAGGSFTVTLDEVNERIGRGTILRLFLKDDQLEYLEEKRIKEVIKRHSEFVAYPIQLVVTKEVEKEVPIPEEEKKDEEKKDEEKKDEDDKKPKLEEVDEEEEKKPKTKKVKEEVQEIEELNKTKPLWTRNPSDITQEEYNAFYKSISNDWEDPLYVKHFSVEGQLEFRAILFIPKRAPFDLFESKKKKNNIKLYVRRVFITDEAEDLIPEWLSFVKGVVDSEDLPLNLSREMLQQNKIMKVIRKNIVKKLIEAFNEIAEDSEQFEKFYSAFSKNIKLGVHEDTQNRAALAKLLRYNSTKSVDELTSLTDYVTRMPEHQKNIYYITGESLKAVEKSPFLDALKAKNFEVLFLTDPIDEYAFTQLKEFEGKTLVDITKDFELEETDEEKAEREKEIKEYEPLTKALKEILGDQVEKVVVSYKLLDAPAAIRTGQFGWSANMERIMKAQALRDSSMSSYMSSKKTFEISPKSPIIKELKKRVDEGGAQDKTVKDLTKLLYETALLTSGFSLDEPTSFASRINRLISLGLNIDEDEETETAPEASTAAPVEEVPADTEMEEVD
# assay: PK/LDH enzyme coupling test of the ATPase activity of Hsp82 (NADH decrease at 340 nm)
# Assay type: biochemical
# protocol-conditions: 1 μM Hsp82, 250 μM ATP, 37° C., pyruvate kinase/lactate dehydrogenase coupling, read-out: Hsp82 ATPase IC50
pIC50: −log10 of the molar value.
molecules and their reported pIC50
assay-readout: pIC50

molecule	result-value
O=C(NC1c2ccccc2-c2c(-c3nc4cnccc4[nH]3)cccc21)c1cccc2ncccc12 (racemic)	> 6.00
O=C(NC1c2ccccc2-c2c(-c3nc4ccncc4[nH]3)cccc21)C(=O)c1ccoc1 (racemic)	5.00 to 6.00
NC(=O)[C@H](N)CC(=O)NC1c2ccccc2-c2c(-c3nc4cnccc4[nH]3)cccc21 (mixture of isomers)	5.00 to 6.00
N#Cc1cc(C(=O)NC2c3ccccc3-c3c(-c4nc5ccncc5[nH]4)cccc32)ccn1 (racemic)	5.00 to 6.00
